The measurements presented in this section are drawn from patent US20250026849A1.

- Study System: T1, BCMA (Homo sapiens (Human), UniProt Q02223 1-54, limits assumed)
- T1 sequence: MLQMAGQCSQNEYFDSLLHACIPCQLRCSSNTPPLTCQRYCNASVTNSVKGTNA
- Run Description: ELISA, format not described
- Parameters: unit not given here
Some binders, each annotated with its measured ELISA_avg.
# answer = number (no unit)

// worked examples, ELISA_avg included
{"columns": ["Binder", "Data Value"],
 "data": [
  ["D-domain SEQ ID NO: 286 (designed binder) MGSWVGFKAHLAIIKWYLEALGGSEAELAGFEIFIADFEALLQMYKGKGNPEVEALRKEAAAIRDELQAYRHN", 9.71],
  ["D-domain SEQ ID NO: 58 (designed binder) MGSWVEFAWRLTAIHTRLWALGGSEAELAAFEKEIAAFESELQAYKGKGNPEVESLRKYAAKIRKQLQAYRHN", 6.08],
  ["D-domain SEQ ID NO: 175 (designed binder) MGSWYEFAHRLEAIEWRLIALGGSEAELAAFEKEIAAFESELQAYKGKGNPEVEELRQYAAAIRNYLQAYRHN", 9.48],
  ["D-domain SEQ ID NO: 244 (designed binder) MGSWYGFKYRLAVIKWYLEALGGSEAELASFEKYIAHFEHDLQAYKGKGNPEVEALRKEAAAIRDELQAYRHN", 9.05]
]}

Shifting focus to the binder that follows.
Lookup result for D-domain SEQ ID NO: 72 (designed binder) MGSWVEFQDRLEAITDRLYALGGSEAELAAFEKEIAAFESELQAYKGKGNPEVEELRYSAAMIRVILQAYRHN ; measured ELISA_avg: 8.88
